Measured protein stability index, listed per entry for reference.
B1: KRT33B (parent)
chain: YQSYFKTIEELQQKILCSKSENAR

variants of: B1; assay: protein stability index of a GFP-peptide fusion (GPS, HEK-293T) (PSI 1-6); higher = more stable; details: c terminus: a fixed tail appended;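 note: lentivirally expressed fusions sorted by FACS into six bins by GFP to DsRed ratio, PSI derived from sequencing read proportions per bin multiplied by bin number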
Number, no unit, nothing else.

S18W ... 1.97
S20H ... 1.82
L11D ... 1.79
E10W ... 1.71
Q13Y ... 1.65
K19N ... 1.86
C17I ... 2.07
K14L ... 2.14
L11E ... 2.01
E10I ... 1.66

Noted for `R24L` : its protein stability index reads 2.15

Per the records, this variant ( `F5N` ) has protein stability index equal to 2.91

In plain terms, `Y1M` has a documented protein stability index of 3.08

Per the record, `F5R` has protein stability index of 2.53

// protein stability index lookup, variant = `F5Q` , result: 2.78

Entry `C17Q` ; protein stability index = 1.89

Entry `Y1V` — recorded protein stability index = 2.68
